# pKi per entry
target: HCV NS3 protease genotype 3a (3A-1) (Hepatitis C virus genotype 3a, UniProt Q81258); test: HCV NS3 protease time-resolved fluorescence (TRF) assay, genotype 3a; assay type: biochemical; settings: Ki 3a
Sequence (Q81258 1664-1717): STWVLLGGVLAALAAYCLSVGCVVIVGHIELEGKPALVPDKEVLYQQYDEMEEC
Sequence (Q81258 1033-1663): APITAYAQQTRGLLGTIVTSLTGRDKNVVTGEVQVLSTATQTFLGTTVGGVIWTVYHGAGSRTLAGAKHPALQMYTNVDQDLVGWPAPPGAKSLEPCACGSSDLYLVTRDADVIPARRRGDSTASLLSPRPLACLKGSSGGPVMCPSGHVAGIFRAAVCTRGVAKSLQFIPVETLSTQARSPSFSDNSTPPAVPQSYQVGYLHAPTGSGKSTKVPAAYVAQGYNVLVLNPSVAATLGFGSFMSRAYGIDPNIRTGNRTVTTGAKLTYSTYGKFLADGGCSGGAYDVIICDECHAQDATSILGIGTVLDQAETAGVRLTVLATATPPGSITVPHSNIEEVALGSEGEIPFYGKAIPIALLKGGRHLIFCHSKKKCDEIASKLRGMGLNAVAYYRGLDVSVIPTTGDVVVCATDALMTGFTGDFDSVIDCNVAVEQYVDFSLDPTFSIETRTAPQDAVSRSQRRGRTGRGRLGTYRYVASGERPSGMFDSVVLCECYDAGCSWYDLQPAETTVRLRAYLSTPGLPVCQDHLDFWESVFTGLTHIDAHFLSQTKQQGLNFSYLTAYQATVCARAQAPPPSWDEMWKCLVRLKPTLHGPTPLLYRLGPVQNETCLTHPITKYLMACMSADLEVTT
Where a name gives a salt, the structure may show the parent alone.
Quick note: pKi means taking -log10 of the concentration in moles per liter.

As a guide, the following entries are already answered.
C=C[C@@H]1C[C@]1(NC(=O)[C@@H]1C[C@@H]2CN1C(=O)[C@H](C(C)(C)C)NC(=O)O[C@]1(C)C[C@H]1CCCCCc1c(nc3ccccc3c1OCCN1CCOCC1)O2)C(=O)NS(=O)(=O)C1CC1 ... 8.70
C=C[C@@H]1C[C@]1(NC(=O)[C@@H]1C[C@@H]2CN1C(=O)[C@H](C(C)(C)C)NC(=O)O[C@@H]1C[C@H]1CCCCCc1c(nc3ccccc3c1OC1C3COCC1CN(C(=O)OC(C)(C)C)C3)O2)C(=O)NS(=O)(=O)C1(C)CC1 (single isomer, unassigned) [Example 255] ... 7.23
C=C[C@@H]1C[C@]1(NC(=O)[C@@H]1C[C@@H]2CN1C(=O)[C@H](C1CCCC1)NC(=O)O[C@@H]1CCC[C@H]1CC/C=C/Cc1c(nc3ccccc3c1OC(=O)C(C)C)O2)C(=O)NS(=O)(=O)C1CC1 ... 7.57
C=C[C@@H]1C[C@]1(NC(=O)[C@@H]1C[C@@H]2CN1C(=O)[C@H](C(C)(C)C)NC(=O)O[C@@H]1C[C@H]1CCCCCc1c(nc3ccccc3c1OCCCN1CCOCC1)O2)C(=O)NS(=O)(=O)C1(C)CC1 ... 8.80
C=C[C@@H]1C[C@]1(NC(=O)[C@@H]1C[C@@H]2CN1C(=O)[C@H](C1CCCCC1)NC(=O)O[C@@H]1C[C@H]1CCCCCc1c(nc3ccccc3c1OCCCN1CCN(C(=O)OC(C)(C)C)CC1)O2)C(=O)NS(=O)(=O)C1(C)CC1 ... 8.11

Query string: Param item = CC[C@@H]1C[C@]1(NC(=O)[C@@H]1C[C@@H]2CN1C(=O)[C@H](C1CCCC1)NC(=O)OC1(C)CCCC1CCCCCc1c(nc3ccccc3c1O)O2)C(=O)NS(=O)(=O)C1CC1 (single isomer, unassigned) ; retrieve measured pKi.
Result string: 8.04

Query string: Param item = C=C[C@@H]1C[C@]1(NC(=O)[C@@H]1C[C@@H]2CN1C(=O)[C@H](C(C)(C)C)NC(=O)O[C@@H]1C[C@H]1CCCCCc1c(nc3cc(C(C)C)ccc3c1OCCCN1CCOCC1)O2)C(=O)NS(=O)(=O)C1(C)CC1 ; retrieve measured pKi.
Result string: 8.55

Query string: Param item = C=C[C@@H]1C[C@]1(NC(=O)[C@@H]1C[C@@H]2CN1C(=O)[C@H](C1CCCCC1)NC(=O)O[C@@H]1C[C@H]1CCCCCc1c(nc3ccccc3c1OC1CCN(CC)CC1)O2)C(=O)NS(=O)(=O)C1(C)CC1 [Example 239, formate] ; retrieve measured pKi.
Result string: 9.56

Query string: Param item = C=C[C@@H]1C[C@]1(NC(=O)[C@@H]1C[C@@H]2CN1C(=O)[C@H](C(C)(C)C)NC(=O)O[C@@H]1C[C@H]1CCCCCc1c(nc3ccccc3c1OC1CC3CCC(C1)N3CC(F)(F)F)O2)C(=O)NS(=O)(=O)C1(C)CC1 (some centres unmarked) ; retrieve measured pKi.
Result string: 7.80
